Biological target: Toll-like receptor 7 (Homo sapiens, UniProt Q9NYK1)
Sequence (Q9NYK1 whole entry): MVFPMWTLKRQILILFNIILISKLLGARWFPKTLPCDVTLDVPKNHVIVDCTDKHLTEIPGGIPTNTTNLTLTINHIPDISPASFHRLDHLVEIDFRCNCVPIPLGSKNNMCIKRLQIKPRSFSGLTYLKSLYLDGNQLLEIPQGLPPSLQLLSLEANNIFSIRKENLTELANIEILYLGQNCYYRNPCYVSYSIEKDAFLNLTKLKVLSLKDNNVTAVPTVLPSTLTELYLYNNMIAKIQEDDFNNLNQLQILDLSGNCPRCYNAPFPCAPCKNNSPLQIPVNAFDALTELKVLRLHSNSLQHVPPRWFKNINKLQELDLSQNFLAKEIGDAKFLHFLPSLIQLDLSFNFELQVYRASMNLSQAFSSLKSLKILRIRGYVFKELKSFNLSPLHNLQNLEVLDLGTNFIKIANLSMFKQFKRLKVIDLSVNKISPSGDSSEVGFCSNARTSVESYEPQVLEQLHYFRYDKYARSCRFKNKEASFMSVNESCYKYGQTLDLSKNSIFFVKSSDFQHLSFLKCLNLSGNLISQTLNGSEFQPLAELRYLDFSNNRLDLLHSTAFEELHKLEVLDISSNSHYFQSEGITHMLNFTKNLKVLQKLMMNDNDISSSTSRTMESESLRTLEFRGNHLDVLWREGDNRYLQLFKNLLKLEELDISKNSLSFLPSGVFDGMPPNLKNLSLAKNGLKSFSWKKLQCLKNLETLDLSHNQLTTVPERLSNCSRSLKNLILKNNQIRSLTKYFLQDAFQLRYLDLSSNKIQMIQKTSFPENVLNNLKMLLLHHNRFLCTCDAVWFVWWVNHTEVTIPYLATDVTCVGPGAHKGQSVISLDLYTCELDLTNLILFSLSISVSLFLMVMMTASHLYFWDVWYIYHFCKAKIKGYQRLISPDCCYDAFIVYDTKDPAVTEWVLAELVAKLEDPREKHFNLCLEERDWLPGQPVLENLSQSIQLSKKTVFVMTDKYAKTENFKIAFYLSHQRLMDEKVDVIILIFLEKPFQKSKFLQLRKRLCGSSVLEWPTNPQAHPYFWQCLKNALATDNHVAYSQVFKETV
Experiment: Inhibition of the Activation Assay: As human TLR7 expressing cell line, HEK293 cell line was bought from IMGENEX Corporation (TLR7/NF-ηB/SEAPorter™ HEK293 cell), which is human embryonic kidney cell line and stably expresses full-length human TLR7 gene and secreted alkaline phosphatase (SEAP) reporter gene under the transcriptional control of an NE-ηB response element. The TLR7/NF-ηB/SEAPorter™ HEK293 cell was cultivated with DMEM containing 10% fetal bovine serum (FBS) and 10 μg/mL blasticidin S at 37° C. in the presence of 5% CO2.

- compound: "CCOc1nc(N)c2nc(-c3cncc(F)c3)n(Cc3ccccc3OC(F)F)c2n1"
  IC50 (nM): 2170
- compound: "CCOc1nc(N)c2nc(-c3cncc(F)c3)n(Cc3ccc(C4CCN(C)C4)cc3)c2n1 (centres undefined)"
  IC50 (nM): 20
- compound: "COCCOc1nc(N)c2nc(-c3cncc(C)c3)n(Cc3ccccc3)c2n1"
  IC50 (nM): 9100
- compound: "CCOc1nc(N)c2nc(-c3cncc(F)c3)n(Cc3ccc(F)c(OCCN(C)C)c3)c2n1"
  IC50 (nM): 420
- compound: "CCOc1nc(N)c2nc(-c3cncc(F)c3)n(Cc3cccc(OCCN(C)C)c3)c2n1"
  IC50 (nM): 77
- compound: "CCOc1nc(C)c2nc(-c3cncc(F)c3)n(Cc3cnn(C)c3)c2n1"
  IC50 (nM): 2680
- compound: "CCOc1nc(C)c2nc(-c3cncc(F)c3)n(Cc3ccc(CN4CCN5CC[C@H]4C5)cc3)c2n1"
  IC50 (nM): 63
- compound: "CCCCCc1nc(N)c2nc(-c3cncc(F)c3)n(Cc3ccccc3)c2n1"
  IC50 (nM): 9500
- compound: "COc1nc(C)c2nc(-c3cncc(F)c3)n(Cc3ccc(CC4CCN(C(=O)OC(C)(C)C)CC4)cc3F)c2n1"
  IC50 (nM): 355
- compound: "CCCCOc1nc(N)c2nc(-c3ccc(CN4CCOCC4)cc3)n(Cc3ccccc3)c2n1"
  IC50 (nM): 8200
- compound: "CCCCOc1nc(N)c2nc(-c3ccc(OCCCN4CCOCC4)cc3)n(Cc3ccccc3)c2n1"
  IC50 (nM): 4100
- compound: "COc1nc(C)c2nc(-c3cncc(F)c3)n(Cc3ccc([C@H]4CN5CCC4CC5)cc3)c2n1"
  IC50 (nM): 3
- compound: "CCOc1nc(N)c2nc(-c3cncc(F)c3)n(Cc3ccc(OCCN4CCN(C)CC4)cc3)c2n1"
  IC50 (nM): 67
- compound: "CCOc1nc(N)c2nc(-c3cncc(F)c3)n(Cc3cc(CN(C)C)no3)c2n1"
  IC50 (nM): 1300
- compound: "CCCCOc1nc(C)c2nc(-c3cncc(F)c3)n(Cc3ccc(CN(C)C)cc3)c2n1"
  IC50 (nM): 200
- compound: "CCOc1nc(C)c2nc(-c3cncc(F)c3)n(Cc3ccc(C4CN5CCC4CC5)cc3)c2n1 (centres undefined)"
  IC50 (nM): 7
- compound: "CCOc1nc(N)c2nc(-c3cncc(F)c3)n(Cc3ccc4c(c3)CN(C(=O)CN(C)C)C4)c2n1"
  IC50 (nM): 460
- compound: "CCOc1nc(N)c2nc(-c3cncc(F)c3)n(Cc3ccc(OCCN(C)C)nc3)c2n1"
  IC50 (nM): 810
- compound: "CCOc1nc(C)c2nc(-c3cncc(F)c3)n(Cc3ccc(CN4CCN5CCC4C5)cc3)c2n1 (centres undefined)"
  IC50 (nM): 28
